# assayTarget: recombinant human MMP-2 (Homo sapiens, UniProt P08253)
# Sequence (P08253 110-660): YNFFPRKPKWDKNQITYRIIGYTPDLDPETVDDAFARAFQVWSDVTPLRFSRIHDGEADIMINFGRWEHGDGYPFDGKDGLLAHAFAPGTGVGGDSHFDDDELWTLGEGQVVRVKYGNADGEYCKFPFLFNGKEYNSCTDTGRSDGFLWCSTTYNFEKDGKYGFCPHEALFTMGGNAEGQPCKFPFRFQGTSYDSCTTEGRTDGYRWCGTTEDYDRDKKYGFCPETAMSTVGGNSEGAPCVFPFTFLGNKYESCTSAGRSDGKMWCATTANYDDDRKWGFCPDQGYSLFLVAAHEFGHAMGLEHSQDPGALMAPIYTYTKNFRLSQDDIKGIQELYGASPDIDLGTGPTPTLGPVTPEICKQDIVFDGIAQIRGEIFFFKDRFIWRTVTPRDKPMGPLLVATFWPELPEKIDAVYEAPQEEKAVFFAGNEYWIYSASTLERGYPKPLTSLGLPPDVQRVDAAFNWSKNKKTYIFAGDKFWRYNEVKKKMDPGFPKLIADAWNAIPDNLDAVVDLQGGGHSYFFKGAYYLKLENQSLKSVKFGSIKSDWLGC
# experimentSummary: In-vitro fluorescence assay of MMP-2 activity
# Type: biochemical
List of IC50 values.
recordedMetric: IC50

[[record]]
compound = "Cc1cc(COc2ccc(S(=O)(=O)N[C@H]3CCN(C(=O)NC(C)(C)C)C[C@H]3C(=O)NO)cc2)c2ccccc2n1"
assaytarget = "recombinant human MMP-2 (Homo sapiens, UniProt P08253)"
reportedvalue = "> 10 µM"

[[record]]
compound = "Cc1cc(COc2ccc(S(=O)(=O)N[C@@H]3CNC[C@@H]3C(=O)NO)cc2)c2ccccc2n1 (relative stereo)"
assaytarget = "recombinant human MMP-2 (Homo sapiens, UniProt P08253)"
reportedvalue = "> 16.7 µM"

[[record]]
compound = "Cc1cc(COc2ccc(S(=O)(=O)N[C@@H]3CCN(C(C)C)C[C@]3(C)C(=O)NO)cc2)c2ccccc2n1"
assaytarget = "recombinant human MMP-2 (Homo sapiens, UniProt P08253)"
reportedvalue = "> 16.7 µM"


These data points were gathered from patent US7595327B2.
